- protocolSummary: Study A16 Part 1: PK of single ascending oral doses of fospropofol disodium (200 to 2000 mg), fasted healthy adults
- Type: in vivo, human
- protocolConditions: both sexes, human, plasma; oral fospropofol disodium 2000 mg; mean
parameter: AUC(0-t) (ng·h/mL)

- CC(C)c1cccc(C(C)C)c1O: 2000

====

- protocolSummary: Study No. 15-3 toxicokinetics of fospropofol and propofol in plasma
- Assay type: in vivo, Sprague-Dawley rats
- protocolConditions: male, Sprague-Dawley, rat, plasma, po, 50 mg/kg, Propofol AUC0-6 hr, oral gavage fospropofol disodium; Male; 50 mg/kg; Day 14
parameter: AUC(0-t) (ng·h/mL)

- CC(C)c1cccc(C(C)C)c1O: 416

Where do the numbers come from? From patent US12377110B2.
